tested on: HCT-116 colon; assay: NCI tumour cell line growth inhibition, 48 h
Below, each entry is listed alongside its reported TGI.
Write the value in µM as a bare number.

Solved cases (2 shown):
STRUCTURE NOTATION: O=C(c1ccc(Cl)cc1)N(Cc1cccnc1)C(=S)N(Cc1cccnc1)C(=O)c1ccc(Cl)cc1
MEASUREMENT KIND: TGI
REPORTED: 80.3
--
STRUCTURE NOTATION: Cc1nnc(N)nc1/C=C\c1cccs1
MEASUREMENT KIND: TGI
REPORTED: 35.5

Shifting focus to the compound that follows.
# return recorded TGI for input `COC(=O)[C@]12CC[C@@H](C)[C@H](C)[C@@H]1C1=CC[C@@H]3[C@@]4(C)C(c5ncon5)=C[C@@](C)(CO)C4=CC[C@@]3(C)[C@]1(C)CC2`
3.2

* * *

Known TGI of a selection of compounds
test system: IGROV1 ovarian; assay: NCI tumour cell line growth inhibition, 48 h

Observe how each entry below is paired with its result.
COMPOUND: O=C1c2cnccc2Cc2cccc3c2N1c1ccccc1S3
TGI: 98.9 µM

COMPOUND: C=C1c2nc3ccccc3n2C=C(c2ccc(Cl)cc2)N1c1ccccc1
TGI: 22.1 µM

COMPOUND: CC(C)O/C=C1\C(=O)C2(SCCS2)[C@H]2CCCC[C@@H]12
TGI: > 100 µM

COMPOUND: O=S(=O)(NC(=S)Nc1ccccc1)c1ccc(N2N=C3c4ccccc4CC3C2c2ccc(Cl)cc2)cc1 (centres undefined)
TGI: 49.3 µM

COMPOUND: Cc1nnc(N)nc1/C=C\c1cccs1
TGI: 28.7 µM

Now let's try a different one.
Consider the compound CC1SC2=NC3=C(c4ccccc4C3=O)C(c3ccc(Br)cc3)N2C1=O (centres undefined) and give its recorded TGI.
> 100 µM

* * *

tested on: CCRF-CEM leukemia; assay: NCI tumour cell line growth inhibition, 48 h
Recorded measurements of TGI, one per entry

COMPOUND: O=C(NN=C1CCCCC1)Nc1ccccc1Cl
TGI: > 100 µM

COMPOUND: CN(C)CCCNC(=O)c1cc2c3ccccc3[nH]c2c2ncccc12
TGI: 56.4 µM

Using the record for O=C1C2C(C(=O)[N]1[Hg][c]1ccccc1)C1(Cl)C(Cl)=C(Cl)C2(Cl)C1(Cl)Cl (stereo not drawn) , state its measured TGI.
10.4 µM

Return TGI for the following compound: `COC(=O)Nc1nc2c(OC)c(OC)c(OC)cc2[nH]1`
> 100 µM

Given `CN(C)CCCNC(=O)c1cc(NC(=O)c2cc(NC(=O)c3cc(NC(=O)CCCn4ccc(CO)c4CO)cn3C)cn2C)cn1C` , respond with its TGI.
> 100 µM

* * *

system: SF-268 CNS; experiment: NCI tumour cell line growth inhibition, 48 h
Where a SMILES comes first, the peptide text is derived from it. [ ]: non-standard residue; d: D form. The star is where a group is joined. NMeF = CN[CH](Cc1ccccc1)C(=O)O; NMeV = CN[CH](C(=O)O)C(C)C; Boc = CC(C)(C)OC(=O)*; OBn = c1ccc(CO*)cc1
Examples of compounds with documented TGI follow.

Worked cases, answers included:
COMPOUND: Cc1cc(C)cc(Nc2nccc(-c3c(-c4ccc(F)cc4)ncn3C3CCNCC3)n2)c1
ASSAY SYSTEM: SF-268 CNS
TGI: 3.96 µM
--
COMPOUND: COc1ccc(CNc2nc3ccccc3nc2-c2cccs2)cc1OC
ASSAY SYSTEM: SF-268 CNS
TGI: > 100 µM
--
COMPOUND: COc1ccc(/C=C/c2nc(N3CCOCC3)c3cc(F)c(F)cc3n2)cc1OC
ASSAY SYSTEM: SF-268 CNS
TGI: > 100 µM

Return reported TGI. Input compound: `O=C(NCCO)c1c(O)c2ccccc2[nH]c1=O`
> 100 µM

Name the recorded TGI of the item CC(C)C(NC(=O)OC(C)(C)C)C(=O)N(C)C(Cc1ccccc1)C(=O)N(C)C(C(=O)N(C)C(C(=O)OCc1ccccc1)C(C)C)C(C)C (centres undefined) (Boc-V[NMeF][NMeV][NMeV]-OBn; configuration not given here) in your answer.
> 100 µM

Quote TGI reported for `Cn1c(=O)c(C(c2ccccc2)c2c(O)c3ccccc3n(C)c2=O)c(O)c2ccccc21` please.
> 100 µM

Report TGI, nothing else, for this compound: `COc1ccc(-c2nnc3n(C)c(=O)c4ccccc4n23)cc1O`
> 100 µM

Annotate the compound Cc1ccc(S(=O)(=Nc2ccccc2)C(C(C)C)C(C)(C)Cl)cc1 (centres undefined) with its measured TGI.
> 50 µM

Fill in reported TGI for this entry: O=C1OCC2=C1C(c1cccc(F)c1)c1cc3c(cc1N2CCO)OCCO3 (centres undefined)
> 50 µM

* * *

system: UO-31 renal; experiment: NCI tumour cell line growth inhibition, 48 h
MEASUREMENT KIND: TGI

As a guide, the following entries are already answered.
COMPOUND: CCOC(=O)CNC(SC)=C(C#N)C#N
REPORTED: > 100 µM
//
COMPOUND: Cc1cn(C2C=CC(=O)C(C)O2)c(=O)[nH]c1=O (stereo not drawn)
REPORTED: 27.7 µM

Name the recorded TGI of the item `COc1ccc(OC)c(CNc2ccc(O)c(C(=O)NCCc3ccc(F)cc3)c2)c1` in your answer.
24.8 µM

* * *

The entries below come with measured TGI values attached.
system: SF-295 CNS; experiment: NCI tumour cell line growth inhibition, 48 h

These solved cases illustrate the format of a correct answer.
MOLECULE: O=C1C[C@H](c2ccccc2)C2(C(=O)c3ccccc3C2=O)[C@@H](c2ccccc2)C1
TGI: > 100 µM
--
MOLECULE: CC(O)(c1ccccc1)c1nccc2ccccc12 (centres undefined)
TGI: > 100 µM
--
MOLECULE: Cc1nnc(N)nc1/C=C\c1cccs1
TGI: > 100 µM
--
MOLECULE: CCOC(=O)c1c(-c2[nH]c(C(=O)OCc3ccccc3)c(C)c2C(=O)OCC)[nH]c(C(=O)OCc2ccccc2)c1C
TGI: > 100 µM
--
MOLECULE: CC(=O)NC1C(OCc2ccccc2)OC(CO)C(O)C1OCC(=O)NC(C)C(=O)NC(CCC(=O)NCCCCCC(=O)Nc1ccc2c(c1)CN1C(=O)c3ccccc3C1=N2)C(N)=O (centres undefined)
TGI: > 100 µM
--
MOLECULE: ClCc1c(-c2ccccc2)nn(-c2ccccc2)c1CCl
TGI: 32.8 µM

Indicate the recorded TGI value for this molecule: `COc1ccc(/C=C/c2nc(N3CCOCC3)c3cc(F)c(F)cc3n2)cc1OC`
> 100 µM

Consider the molecule `CN(N)C(=O)NCCCl` . State its measured TGI.
> 100 µM

Determine its reported TGI: COc1cc2c(cc1OCCCCCCNC(=O)c1cc3ccccc3[nH]1)N=CC1CCCN1C2=O (centres undefined)
> 100 µM

Give recorded TGI. `COC(=O)[C@]12CC[C@@H](C)[C@H](C)[C@@H]1C1=CC[C@@H]3[C@@]4(C)C(c5ncon5)=C[C@@](C)(CO)C4=CC[C@@]3(C)[C@]1(C)CC2`
5.03 µM

For the molecule `CCC[CH2][Sn]1([CH2]CCC)[O]C(=O)C[S]1` , give its reported TGI.
13 µM

* * *

test system: NCI-H226 lung; test: NCI tumour cell line growth inhibition, 48 h
MEASUREMENT KIND: TGI

These recorded examples may help you get a feel for the data.
COMPOUND: CCC[CH2][Sn]1([CH2]CCC)[O]C(=O)C[S]1
REPORTED: 3.77 µM
//
COMPOUND: O=C(O)c1cn(C2CC2)c2cc(N3CCN(S(=O)(=O)c4ccc(Cl)c(Cl)c4)CC3)c(F)cc2c1=O
REPORTED: > 100 µM

Jot down TGI (NCI-H226 lung) of OC(COc1ccc(Cl)cc1Cl)CN1CCCC1 (stereo unspecified) .
> 100 µM

Look up and report TGI, with NCI-H226 lung as system, for `Cc1ccc(NC(=O)c2cccc([N+](=O)[O-])c2O)c(C)c1`
> 100 µM

Provide NCI-H226 lung TGI reading for `O=C(NN=C1CCCCC1)Nc1ccccc1Cl` .
> 100 µM

* * *

test system: SK-MEL-5 melanoma; experiment: NCI tumour cell line growth inhibition, 48 h
The following compounds are listed with their measured TGI values.
Supply the numeric figure in µM, leaving out any unit text.

Answered examples (5):
COMPOUND: O=C(O)c1cn(C2CC2)c2cc(N3CCN(S(=O)(=O)c4ccc(Cl)c(Cl)c4)CC3)c(F)cc2c1=O
ASSAY SYSTEM: SK-MEL-5 melanoma
TGI, µM: 4.42
//
COMPOUND: Cc1cc(N(CCCNc2ccnc3cc(Cl)ccc23)Cc2cccs2)nc(Cl)n1
ASSAY SYSTEM: SK-MEL-5 melanoma
TGI, µM: 3.15
//
COMPOUND: C=CCC1NCCC2=C1C(S(=O)(=O)c1ccc(C)cc1)c1ccccc12 (stereo not drawn)
ASSAY SYSTEM: SK-MEL-5 melanoma
TGI, µM: 27.6
//
COMPOUND: CN(C)CCCNC(=O)c1cc(NC(=O)c2cc(NC(=O)c3cc(NC(=O)CCCn4ccc(CO)c4CO)cn3C)cn2C)cn1C
ASSAY SYSTEM: SK-MEL-5 melanoma
TGI, µM: 12.7
//
COMPOUND: Cc1ccc(S(=O)(=Nc2ccccc2)C(C(C)C)C(C)(C)Cl)cc1 (stereo not drawn)
ASSAY SYSTEM: SK-MEL-5 melanoma
TGI, µM: 16.7

Quickly give me recorded TGI for COC(=O)c1ccc(C)cc1C1CN=NC12Cc1cc(C)c(C)cc1C2=O (stereo not drawn)
49.2

Please indicate TGI recorded for `N/C(=N\Nc1nc2cc([N+](=O)[O-])ccc2o1)c1ccccn1`
1.45

Hello, please tell me recorded TGI for this one: `COc1cc(C)c(C(=O)/C=C/c2cc(OC)c(O)c(OC)c2)cc1O`
33.6
